Exercise: state measured protein stability index for each of the variants provided.
B1: PCMTD2 (parent)
chain: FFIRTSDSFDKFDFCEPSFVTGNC

- Variants of: B1
- experiment summary: protein stability index of a GFP-peptide fusion (GPS, HEK-293T) (PSI 1-6); higher = more stable;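 also: lentivirally expressed fusions sorted by FACS into six bins by GFP to DsRed ratio, PSI derived from sequencing read proportions per bin multiplied by bin number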
- cond: c terminus: a fixed tail appended
Lab note: record the figure alone, no unit after it.

protein stability index in this record for FFIRTSDSFDKFDFCEPSFGTGNC [V20G] : 1.61

protein stability index in this record for FFIRTYDSFDKFDFCEPSFVTGNC [S6Y] : 2.48

protein stability index in this record for QFIRTSDSFDKFDFCEPSFVTGNC [F1Q] : 1.87

protein stability index in this record for FFIRDSDSFDKFDFCEPSFVTGNC [T5D] : 2.37

protein stability index in this record for FFIRTSDSPDKFDFCEPSFVTGNC [F9P] : 1.28

protein stability index in this record for FLIRTSDSFDKFDFCEPSFVTGNC [F2L] : 3.25

protein stability index in this record for FFIRTSDSFDKFDFCEPSFVTENC [G22E] : 2.16

protein stability index in this record for FFIRTSDSLDKFDFCEPSFVTGNC [F9L] : 2.12

protein stability index in this record for FFIRVSDSFDKFDFCEPSFVTGNC [T5V] : 3.03

protein stability index in this record for FFIRTSDNFDKFDFCEPSFVTGNC [S8N] : 2.13

protein stability index in this record for FFIRTSDSFDKFDFCEPIFVTGNC [S18I] : 2.48

protein stability index in this record for FFIRTSDSFDKFDFCEPSFVTCNC [G22C] : 2.71

protein stability index in this record for FFIRTSDKFDKFDFCEPSFVTGNC [S8K] : 1.72

protein stability index in this record for FFIRTSDSFDKFDFCEPSFVTGNS [C24S] : 2.78

protein stability index in this record for FFIRTSDSFDKFDFCEFSFVTGNC [P17F] : 2.3

protein stability index in this record for FFIRMSDSFDKFDFCEPSFVTGNC [T5M] : 2.69

protein stability index in this record for FFIRTSDSFDKFDFCIPSFVTGNC [E16I] : 2.85

protein stability index in this record for FFIRESDSFDKFDFCEPSFVTGNC [T5E] : 2.14

protein stability index in this record for FFIRTSDSFDKFDFCEPSFVTGMC [N23M] : 1.83

protein stability index in this record for FFIRTSDPFDKFDFCEPSFVTGNC [S8P] : 2.35

protein stability index in this record for FDIRTSDSFDKFDFCEPSFVTGNC [F2D] : 2.71

protein stability index in this record for FFIRTSCSFDKFDFCEPSFVTGNC [D7C] : 2.8
